Biological target: pooled human IgG (human IgG1,2,3 and 4)
ASSAY_READOUT: Enzyme activity endpoint: Fc (ng/µL)
Only the number, expressed in ng/µL, is required.

// known answers, use as guide
{"PROTEIN": "PRT-653 (protein) MQITSVWTKGVTPLTPEQFRYNNEDVIHAPYLAHQGWYDITKAFDGKDNLLCGAATAGNMLHWWFDQNKTEIEAYLSKHPEKQKIIFNNQELFDLKAAIDTKDSQTNSQLFNYFRDKAFPNLSARQLGVMPDLVLDMFINGYYLNVFKTQSTDVNRPYQDKDKRGGIFDAVFTRGDQTTLLTARHDLKNKGLNDISTIIKQELTEGRALALSHTYGNVRSSHVINLWGADFNAEGNLEAIYVTDSDANASIGMKKYFVGINAHGHVAISAKKIEGENVGAQVLGLFTLSSGKDIWQKLSLEHHHHHH", "ASSAY_READOUT": "Enzyme activity endpoint: Fc", "RESULT_UNIT": "ng/µL", "MEAS_VALUE": 0}
{"PROTEIN": "PRT-649 (protein) MQITSVWTKGVTPLTPEQFRYNNEDVIHAPYLAHQGWYDITKAFDGKDNLLCGAATAGNMLHWWFDQNKTEIEAYLSKHPEKQKIIFNNQYLFDLKAAIDTKDSQTNSQLFNYFRDKAFGNLSARQLGVMPDLVLDMFINGYKLKVNKTQSTDVNRPYQKPDNFGGIFDAVFTRGDQTTLLTARHDLKNKGLNDISTIIKQELTEGRALALSHTYANVSISHVINLWGADFNAEGNLEAIYVTDSDANASIGMKKYFVGINAHGHVAISAKKIEGENIGAQVLGLFTLSSGKDIWQKLSLEHHHHHH", "ASSAY_READOUT": "Enzyme activity endpoint: Fc", "RESULT_UNIT": "ng/µL", "MEAS_VALUE": 32}
{"PROTEIN": "PRT-683 (protein) MQITSVWTKGVTPLTPEQFRYNNEDVIHAPYLAHQGWYDITKAFNGKDNLLCGAATAGNMLHWWFDQNKEEIEAYLKKHPEKQKIIFNNQELFDLRKAINTKDSQTNSQLFNYFRDKAFPNLSARQLGVMPDLVLDMFINGYYLNVFKTQSTDVNRPYQDKDKRGGIFDHVFTRGDQTTLLTARHDLKNKTLNDISQIIKQELQEGKALALSHTYANVSISHVINLWGADFNAEGNLEAIYVTDSDANASIGMKKYFVGKNAHGHVAISAKKIEGENIGAQVLGLFTLSSGKEIWQKLSLEHHHHHH", "ASSAY_READOUT": "Enzyme activity endpoint: Fc", "RESULT_UNIT": "ng/µL", "MEAS_VALUE": 570}

The record that follows has no Enzyme activity endpoint: Fc shown yet.
Notebook: PRT-676 (protein) MQITSVWTKGVTPPTMDQFTNYNYDVFHAPYKPGQGWYDITKTFDGKDNLLCGAATAGNMLHWWFDQNKEEIENYLKKHPEKQKIIFNNQKMFDLRKAINTKDSQTNSALFNYFKDKAFPNLSARQKGVMPDLVLDMFINGYYLNLGKTQSTDVNREYQTKDSRGGIFDDVFGRGDQTKLLTARHDLYNGGLNDISQLIKQELSSGKALGLSHTYANVRYSHVINLWGADFDEEGNLEAIYVTDSDDDASIGMKKYYVGKNASGKVAISAKKIEGENIGAQVLGLFTLSSGKEIWQKLSLEHHHHHH , Enzyme activity endpoint: Fc read as 136
